target: Polyadenylate-binding protein 1 (Homo sapiens, UniProt P11940); assay: PABP1 MLLE–PAM2 binding inhibitor potency, dose response, biochemical, fluorescence polarization, FITC-PAM2 peptide (AID 602259); format: functional; settings: read-out: IC50_Mean
Sequence (P11940 whole entry): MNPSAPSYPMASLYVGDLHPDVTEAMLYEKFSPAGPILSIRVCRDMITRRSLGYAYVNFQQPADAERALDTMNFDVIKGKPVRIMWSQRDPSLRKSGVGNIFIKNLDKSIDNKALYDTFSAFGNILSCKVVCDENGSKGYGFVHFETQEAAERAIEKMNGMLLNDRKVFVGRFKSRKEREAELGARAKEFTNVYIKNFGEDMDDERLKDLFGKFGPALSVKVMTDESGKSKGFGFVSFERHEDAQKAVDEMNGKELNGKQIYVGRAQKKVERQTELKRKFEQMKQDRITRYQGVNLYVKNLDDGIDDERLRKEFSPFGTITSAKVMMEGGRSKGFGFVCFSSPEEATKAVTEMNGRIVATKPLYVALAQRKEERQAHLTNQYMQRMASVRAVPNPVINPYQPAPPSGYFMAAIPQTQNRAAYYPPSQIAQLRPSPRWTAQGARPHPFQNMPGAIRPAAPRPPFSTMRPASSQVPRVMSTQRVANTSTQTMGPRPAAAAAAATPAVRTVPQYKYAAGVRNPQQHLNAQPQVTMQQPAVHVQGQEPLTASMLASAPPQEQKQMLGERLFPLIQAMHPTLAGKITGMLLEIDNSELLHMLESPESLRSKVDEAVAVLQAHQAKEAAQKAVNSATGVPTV
Active and inactive are the calls of the source. Cut-off read from the data, not from the text of the source: active = IC50 of 20 µM or less and inactive = more.
Recorded measurements of IC50, one per entry

// worked examples, IC50 included
> print(dat)
                                   molecule  measured.parameter  experimental.result
1             O=C(CNC(=O)C1CCCCC1)NC1=NCCS1                IC50   > 66 µM (inactive)
2              S=C(Nc1ccc(Br)cc1Cl)Nn1cnnc1                IC50   > 66 µM (inactive)
3       O=C(CSc1nnc(-c2cccnc2)o1)Nc1ccccc1F                IC50   > 66 µM (inactive)
4  CC(=O)c1c(C)cc(C)c(CSc2nc(C)cc(=O)[nH]2)c1C                IC50   > 66 µM (inactive)
5  Cc1ccc([N+](=O)[O-])cc1S(=O)(=O)Nc1ccc(O)c(Sc2nc[nH]n2)c1                IC50   > 66 µM (inactive)

Asked: Look up IC50: COc1c2c(c3c(c1OC)c(=O)c1ccccc1n3C)OCO2
Given back: 41.7 µM (inactive)

Asked: Look up IC50: Cn1nc([N+](=O)[O-])c(C(C#N)c2nc3ccccc3n2C)c(Cl)c1=O (stereo not drawn)
Given back: 30.8 µM (inactive)

Asked: Look up IC50: COc1cc(C2c3sc(O)nc3SC3C(=O)N(c4ccc(Br)cc4)C(=O)C32)ccc1O (stereo not drawn)
Given back: > 66 µM (inactive)

These entries and their values trace back to ChEMBL document CHEMBL1201862.
